For each of the molecules below, state its GI50.
system: SF-295; assay: NCI tumour cell line growth inhibition, 48 h
Active and inactive are the calls of the source. Cut-off read from the data, not from the text of the source: active = GI50 up to about 1.1 µM and inactive = higher.

Molecule	System Under Test	Measure	Assay Result
CC[C@@H]1C[C@@H]2CN3CCc4c([nH]c5ccc(OC)cc45)C(COC(=O)c4ccc(OC)c(OC)c4)(C2)C13	SF-295	GI50	19.5 µM (inactive)
CSc1nc(C)c(CCOC(C)=O)c(N=P(c2ccccc2)(c2ccccc2)c2ccccc2)n1	SF-295	GI50	> 10 µM (inactive)
CC(C(=O)N1c2ccccc2Sc2ccccc21)N1c2ccccc2Sc2ccccc21 (stereo unspecified)	SF-295	GI50	98.4 µM (inactive)

I need GI50 for every entry listed below, if you could help.
1. N#Cc1c(N)oc(-c2ccc([N+](=O)[O-])cc2)c1C#N
2. Cc1ccc(S(=O)(=O)N/N=C/CN2C(=O)c3ccccc3C2=O)cc1
3. COc1cc(S(=O)(=O)Nc2nc(-c3ccc(N4C(=O)/C(=C/C=C/c5ccccc5)N=C4c4ccccc4)cc3)cs2)ccc1Cl
4. COc1cc(NS(C)(=O)=O)ccc1Nc1c2ccccc2nc2ccccc12
5. CN(C)c1cccc2c(S(=O)(=O)NCCN)cccc12
6. CCCCCN1CCN(c2ncccn2)CC1

result:
1: 19.2 µM (inactive); 2: > 100 µM (inactive); 3: > 100 µM (inactive); 4: 0.104 µM (active); 5: > 100 µM (inactive); 6: > 100 µM (inactive)
